Numbers sourced from the supplement of paper PMC10567573.

Attribute: protein stability index
B1: ANKRD44 (parent)
chain: FHCIETLVTTGANVNETDDWGRTA

Variants of: B1
Experiment: protein stability index of a GFP-peptide fusion (GPS, HEK-293T) (PSI 1-6); higher = more stable;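 also: lentivirally expressed fusions sorted by FACS into six bins by GFP to DsRed ratio, PSI derived from sequencing read proportions per bin multiplied by bin number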
Conditions: c terminus: a fixed tail appended
property.label: protein stability index

• D19Y = 2.43
• T23N = 2.17
• G21W = 2.48
• E5K = 2.14
• F1Q = 4.54
• T6D = 3.61
• T6A = 2.16
• D19G = 1.79
• G21I = 2.24
• L7T = 2.85
• A12P = 1.81
• N13S = 2.39
• A12N = 2.07
• E16C = 2.16
• L7S = 2.57
• G11T = 2.29
• D18F = 2.21
• F1C = 2.18
• E5I = 2.98
• C3F = 2
• L7E = 3.82
• T6M = 2.18
